- System: Mutarda arvensis
- assay remarks: Herbicidal activity against Sinapis arvensis after 3 weeks by post-emergence greenhouse test
- Type: functional
- Design: concentration or dose not given beside the values
Reported Activity is given for each of the following compounds.
measured parameter: Activity

| compound | result |
| --- | --- |
| COc1cc(OC)nc(NC(=O)NS(=O)(=O)c2c([S+]([O-])C(C)C)nc3ccccn23)n1 (stereo not given) | 1% |
| COc1cc(OC)nc(NC(=O)NS(=O)(=O)c2c(SC)nc3ccccn23)n1 | 88% |
| CCSc1nc2ccccn2c1S(=O)(=O)NC(=O)Nc1nc(OC)cc(OC)n1 | 76% |
| CC[S+]([O-])c1nc2ccccn2c1S(=O)(=O)NC(=O)Nc1nc(OC)cc(OC)n1 (stereo not given) | 51% |
| COc1cc(OC)nc(NC(=O)NS(=O)(=O)c2c(S(=O)(=O)c3ccccc3)nc3ccccn23)n1 | 51% |
